# MEASUREMENT DESCRIPTION: in vitro
# REPORTED CONDITIONS: human
PARAMETER: CC50

Fill in: CC50 of `CCC(CC)COC(=O)[C@H](C)N[P@](=O)(OC[C@H]1O[C@@](C#N)(c2ccc3c(N)ncnn23)[C@H](O)[C@@H]1O)Oc1ccccc1` is ___
> 100 µM

* * *

# Tested on: HCoV-229E
# MEASUREMENT DESCRIPTION: Viral yield reduction (VYR) assay, HCoV-229E in MRC-5 cells
# REPORTED CONDITIONS: read-out: EC50 (μM) HCoV-229E, progeny virus 24 h post-infection, mean ± SD
PARAMETER: EC50 (µM)
State the answer as a number, implicitly in µM.

Fill in: EC50 of CCC(CC)COC(=O)[C@H](C)N[P@](=O)(OC[C@H]1O[C@@](C#N)(c2ccc3c(N)ncnn23)[C@H](O)[C@@H]1O)Oc1ccccc1 [Remdesivir] is ___
0.056

* * *

# System: MRC-5 cells
# REPORTED CONDITIONS: human
PARAMETER: CC50

Fill in: CC50 of CCC(CC)COC(=O)[C@H](C)N[P@](=O)(OC[C@H]1O[C@@](C#N)(c2ccc3c(N)ncnn23)[C@H](O)[C@@H]1O)Oc1ccccc1 [Remdesivir] is ___
> 100 µM

* * *

# MEASUREMENT DESCRIPTION: Cytotoxicity assay (CCK-8), Caco-2
# Format: cell-based
# REPORTED CONDITIONS: human, CCK-8, 48 h treatment
PARAMETER: CC50 at 48 h

Fill in: CC50 at 48 h of CCC(CC)COC(=O)[C@H](C)N[P@](=O)(OC[C@H]1O[C@@](C#N)(c2ccc3c(N)ncnn23)[C@H](O)[C@@H]1O)Oc1ccccc1 [Remdesivir] is ___
> 100 µM

* * *

# MEASUREMENT DESCRIPTION: Cytotoxicity assay (CCK-8), NCTC clone 929
# Format: cell-based, murine
# REPORTED CONDITIONS: mouse, NCTC clone 929 cells; Figure 1C MHV plot label; read-out: NCTC clone CC50 (label inside plot)
PARAMETER: CC50 at 48 h

Fill in: CC50 at 48 h of CCC(CC)COC(=O)[C@H](C)N[P@](=O)(OC[C@H]1O[C@@](C#N)(c2ccc3c(N)ncnn23)[C@H](O)[C@@H]1O)Oc1ccccc1 [Remdesivir] is ___
> 100 µM

These data points were gathered from paper PMC10748125.
